biological target: TLN1 309-401, Q9Y490
Sequence (Q9Y490 309-401): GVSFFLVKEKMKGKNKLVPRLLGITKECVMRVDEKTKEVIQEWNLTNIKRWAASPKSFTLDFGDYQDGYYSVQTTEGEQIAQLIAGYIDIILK
quantityKind: selected by phage display

Input: Entry ALPSTWIENKLYGMSD [RET, P07949] has what selected by phage display?
Output: confidence 4 (active)

Input: Record request: selected by phage display value, item SQSDDGPIMWVRPGEQ [RSBN1, Q5VWQ0]
Output: confidence 2 (active)

Input: Need selected by phage display, item GLYPIIWQYPNGTHAY [JMJD1C, Q15652]
Output: confidence 2 (active)

Input: Please look up its selected by phage display: EDLKWLWYENRIYVLG [NEMP2, A6NFY4]
Output: confidence 2 (active)

Input: Reported selected by phage display, binder WTFSPLTETEMQITAV [PRUNE2, Q8WUY3] : ____
Output: confidence 2 (active)

Please go through the list and note selected by phage display for each binder.
1. DLIFTDSKLYIPLEYR [TPTE, P56180]
2. AVVWIDSTLHQPMFLL [OR52W1, Q6IF63]

Output:
1. confidence 4 (active)
2. confidence 2 (active)
